- study target: Indoleamine 2,3-dioxygenase 1 (Homo sapiens)
- Sequence (P14902 whole entry): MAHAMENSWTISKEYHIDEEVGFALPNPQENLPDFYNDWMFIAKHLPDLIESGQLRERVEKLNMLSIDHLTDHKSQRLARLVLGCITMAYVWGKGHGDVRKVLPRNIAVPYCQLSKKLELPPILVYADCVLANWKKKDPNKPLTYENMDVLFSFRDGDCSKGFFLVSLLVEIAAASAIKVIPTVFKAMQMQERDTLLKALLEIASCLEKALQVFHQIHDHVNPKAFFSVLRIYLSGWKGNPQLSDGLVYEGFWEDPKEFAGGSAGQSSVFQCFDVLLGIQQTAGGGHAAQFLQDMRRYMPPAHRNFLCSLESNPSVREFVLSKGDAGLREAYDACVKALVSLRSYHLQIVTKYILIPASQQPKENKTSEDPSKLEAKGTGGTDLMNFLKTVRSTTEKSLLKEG
- protocol text: Inhibition of IDO1 in IFN-gamma-induced human HeLa cells assessed as reduction in L-kynurenine level after 24 hrs
- Type: cell-based
quantity kind: IC50 (nM)
Give bare numbers, in nM.

Lookup: Find the recorded IC50 belonging to Brc1cc(NCc2cccc3nonc23)c2cn[nH]c2c1 and report it.
Found: 1370

###

- study target: UniProt P48775
- protocol text: Inhibition of human TDO expressed in human A172 assessed as reduction in kynurenine formation using L-tryptophan as substrate after 24 hrs
- Sequence (P48775 whole entry): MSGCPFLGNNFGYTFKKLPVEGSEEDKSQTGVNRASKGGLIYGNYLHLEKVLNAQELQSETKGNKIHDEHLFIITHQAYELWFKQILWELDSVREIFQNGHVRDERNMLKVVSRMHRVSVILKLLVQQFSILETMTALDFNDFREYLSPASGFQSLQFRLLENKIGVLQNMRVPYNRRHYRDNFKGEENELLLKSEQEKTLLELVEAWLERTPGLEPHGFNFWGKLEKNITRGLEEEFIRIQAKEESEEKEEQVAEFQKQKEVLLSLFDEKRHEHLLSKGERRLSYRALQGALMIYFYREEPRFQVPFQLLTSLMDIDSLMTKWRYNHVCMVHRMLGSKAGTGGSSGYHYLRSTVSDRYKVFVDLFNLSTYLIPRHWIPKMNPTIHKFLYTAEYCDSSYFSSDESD
quantity kind: pIC50
One number for each entry, as −log10 of the molar value.

Lookup: Please provide the recorded pIC50 for Brc1cc(NCc2cccc3nonc23)c2cn[nH]c2c1 , tested on UniProt P48775.
Found: 5.12

###

- study target: Tryptophan 2,3-dioxygenase (Homo sapiens)
- protocol text: Inhibition of human TDO expressed in Escherichia coli at 10 uM using L-tryptophan as substrate after 1 hr by UV absorption analysis
- Sequence (P48775 whole entry, looked up): as the sequence (P48775 whole entry) above
Activity calls are given as the source filed them. The rule behind the calls is not given here.
quantity kind: inhibition

INSERT INTO results (compound, study_target, observed_result) VALUES
  ('OC1CCCC(Nc2cccc(CNc3cc(Br)cc4[nH]ncc34)c2)C1 (stereo not given)', 'Tryptophan 2,3-dioxygenase (Homo sapiens)', '50%'),
  ('Oc1ccc(CNc2cc(Br)cc3[nH]ncc23)cc1F', 'Tryptophan 2,3-dioxygenase (Homo sapiens)', '26%'),
  ('O=C1CCCC(Nc2cccc(CNc3cc(Br)cc4[nH]ncc34)c2)C1 (stereo not given)', 'Tryptophan 2,3-dioxygenase (Homo sapiens)', '46%'),
  ('O=C(Nc1ccc(CCNc2cc(Br)cc3[nH]ncc23)cc1)NC1CCOCC1', 'Tryptophan 2,3-dioxygenase (Homo sapiens)', '20%');

Give measured inhibition for every item shown.
1. O=C(O)CNc1cccc(CNc2cc(Br)cc3[nH]ncc23)c1
2. Nc1cc(CNc2cc(Br)cc3[nH]ncc23)ccc1O
3. ONc1cccc(CNc2cc(Br)cc3[nH]ncc23)c1
4. N#Cc1ccc(CNc2cc(Br)cc3[nH]ncc23)cc1
5. Nc1ccccc1CNc1cc(Br)cc2[nH]ncc12
6. Oc1ccc(CNc2cc(Br)cc3[nH]ncc23)c(F)c1
7. Oc1ccc(CNc2cc(Br)cc3[nH]ncc23)cc1O
8. Brc1cc(NCc2cccs2)c2cn[nH]c2c1

Found:
1: inactive; 2: inactive; 3: inactive; 4: 73%; 5: inactive; 6: inactive; 7: inactive; 8: 53%

Give measured inhibition for every item shown.
1. Nc1ccccc1CC(=O)Nc1ccc(CCNc2cc(Br)cc3[nH]ncc23)cc1
2. Oc1cccc(CNc2cc(Br)cc3[nH]ncc23)c1

Found:
29%
55%

Give measured inhibition for every item shown.
1. CC(=O)Nc1ccc(CNc2cc(Br)cc3[nH]ncc23)cc1
2. Brc1cc(NCc2cccc3nonc23)c2cn[nH]c2c1
3. Nc1ccc(CNc2cc(Br)cc3[nH]ncc23)cc1
4. OCc1ccc(CNc2cc(Br)cc3[nH]ncc23)cc1
5. Nc1ccc(CCNc2cc(Br)cc3[nH]ncc23)cc1
6. Nc1cccc(CNc2cc(Br)cc3[nH]ncc23)c1
7. FC(F)(F)c1cccc(CNc2cc(Br)cc3[nH]ncc23)c1
8. CC(C)Nc1cc(Br)cc2[nH]ncc12

Found:
inactive
85%
24%
56%
inactive
inactive
56%
inactive
